The origin of these recorded values is the supplement of paper PMC11061612.

Overview of reported Bliss excess across a group of compounds:
# Test system: NB69 (Neuroblastoma);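 note: after 72 h of two-drug dosing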
# procedureDetails: Bliss excess, mean over the matrix (fraction); higher = more synergy
measuredProperty: Bliss excess

[[record]]
compound = "C=CCn1c(=O)c2cnc(Nc3ccc(N4CCN(C)CC4)cc3)nc2n1-c1cccc(C(C)(C)O)n1 [AZD1775] + CCc1c2c(nc3ccc(O)cc13)-c1cc3c(c(=O)n1C2)COC(=O)[C@]3(O)CC [SN-38] (first compound max 1 µM, partner max 0.3 µM)"
reported = 0.0239

[[record]]
compound = "O=C(c1cc(Cc2n[nH]c(=O)c3ccccc23)ccc1F)N1CCN(C(=O)C2CC2)CC1 [Olaparib] + COc1nnc2ccc(N3CCC(c4ccc(OCCN5CCN(C)C(=O)[C@H]5C)cc4)CC3)nn12 [AZD5153] (first compound max 10 µM, 7x7, partner max 1 µM)"
reported = 0.0035

[[record]]
compound = "COc1cccc(OCCCN)c1-c1cc(Nc2cnc(C#N)cn2)n[nH]1 [Prexasertib] + Cc1cc2ncnn2cc1Nc1ncc2c(n1)n(C1CCOCC1)c(=O)n2C [AZD7648] (first compound max 1 µM, 7x7, partner max 10 µM)"
reported = 0.0182

[[record]]
compound = "CN(CCO)CC[C@H](CSc1ccccc1)Nc1ccc(S(=O)(=O)NC(=O)c2ccc(N3CCC([C@@H](O)c4ccccc4-c4ccc(Cl)cc4)CC3)cc2)cc1S(=O)(=O)C(F)(F)F [AZD4320] + CCN(CCO)CCCOc1ccc2c(Nc3cc(CC(=O)Nc4cccc(F)c4)[nH]n3)ncnc2c1 [AZD2811] (first compound max 1 µM, 7x7, partner max 1 µM)"
reported = -0.0077


====

# Test system: Caov-4 (Ovarian Carcinoma)
# procedureDetails: combination Emax (second highest fraction inhibited in the dose matrix, 72 h); higher = more inhibition; extreme values may be limits of the assay
measuredProperty: combination Emax

[[record]]
molecule = "N#Cc1cnc(Nc2cc(NC[C@H]3CNCCO3)c(C(F)(F)F)cn2)cn1 [SRA737] + C=CCn1c(=O)c2cnc(Nc3ccc(N4CCN(C)CC4)cc3)nc2n1-c1cccc(C(C)(C)O)n1 [AZD1775] (first compound max 10 µM, partner max 1 µM)"
reported = 0.854

[[record]]
molecule = "CCN(CCO)CCCOc1ccc2c(Nc3cc(CC(=O)Nc4cccc(F)c4)[nH]n3)ncnc2c1 [AZD2811] + O=C(c1cc(Cc2n[nH]c(=O)c3ccccc23)ccc1F)N1CCN(C(=O)C2CC2)CC1 [Olaparib] (first compound max 1 µM, 7x7, partner max 10 µM)"
reported = 0.19

[[record]]
molecule = "CCc1c2c(nc3ccc(O)cc13)-c1cc3c(c(=O)n1C2)COC(=O)[C@]3(O)CC [SN-38] + O=C(c1cc(Cc2n[nH]c(=O)c3ccccc23)ccc1F)N1CCN(C(=O)C2CC2)CC1 [Olaparib] (first compound max 0.3 µM, 7x7, partner max 10 µM)"
reported = 0.937


====

# Test system: BT-549 (Breast Carcinoma)
# procedureDetails: combination Emax (second highest fraction inhibited in the dose matrix, 72 h); higher = more inhibition; extreme values may be limits of the assay
Overview of reported combination Emax across a group of compounds:
measuredProperty: combination Emax

[[record]]
compound = "Cc1c2c(nn1C)CSCc1cc(n(C)n1)CSc1cc(c3ccccc3c1)OCCCc1c(C(=O)O)n(C)c3c-2c(Cl)ccc13 [AZD5991] + Cn1cnc2c(F)c(Nc3ccc(Br)cc3Cl)c(C(=O)NOCCO)cc21 [Selumetinib] (first compound max 1 µM, 7x7, partner max 3 µM)"
measuredproperty = "combination Emax"
reported = 0.258

[[record]]
compound = "CN(CCO)CC[C@H](CSc1ccccc1)Nc1ccc(S(=O)(=O)NC(=O)c2ccc(N3CCC([C@@H](O)c4ccccc4-c4ccc(Cl)cc4)CC3)cc2)cc1S(=O)(=O)C(F)(F)F [AZD4320] + C[C@@H]1COCCN1C2=NC(=NC(=C2)C3(CC3)[S@](=N)(=O)C)C4=C5C=CNC5=NC=C4 [AZD6738] (first compound max 1 µM, 7x7, partner max 10 µM)"
measuredproperty = "combination Emax"
reported = 0.552

[[record]]
compound = "C[C@@H](Nc1cc(F)cc(F)c1)c1cc(C(=O)N(C)C)cc2c(=O)cc(N3CCOCC3)oc12 [AZD8186] + CC(=O)c1c(C)c2cnc(Nc3ccc(N4CCNCC4)cn3)nc2n(C2CCCC2)c1=O [Palbociclib] (first compound max 10 µM, 7x7, partner max 10 µM)"
measuredproperty = "combination Emax"
reported = 0.392

[[record]]
compound = "Cc1nc(Nc2ncc(C(=O)Nc3c(C)cccc3Cl)s2)cc(N2CCN(CCO)CC2)n1 [Dasatinib] + CC(=O)Nc1cccc(-n2c(=O)n(C3CC3)c(=O)c3c(Nc4ccc(I)cc4F)n(C)c(=O)c(C)c32)c1 [Trametinib] (first compound max 2 µM, 7x7, partner max 1 µM)"
measuredproperty = "combination Emax"
reported = 0.436

[[record]]
compound = "C=CCn1c(=O)c2cnc(Nc3ccc(N4CCN(C)CC4)cc3)nc2n1-c1cccc(C(C)(C)O)n1 [AZD1775] + C1CN(CCC1(C(=O)N[C@@H](CCO)C2=CC=C(C=C2)Cl)N)C3=NC=NC4=C3C=CN4 [Capivasertib] (first compound max 3 µM, partner max 3 µM)"
measuredproperty = "combination Emax"
reported = 0.638

[[record]]
compound = "COc1cccc(OCCCN)c1-c1cc(Nc2cnc(C#N)cn2)n[nH]1 [Prexasertib] + CN(C)CCCOc1ccc(-c2ccc3ncc4c(c3c2)n(C2CCOCC2)c(=O)n4C)cn1 [AZD0156] (first compound max 1 µM, 7x7, partner max 1 µM)"
measuredproperty = "combination Emax"
reported = 0.707

[[record]]
compound = "N#Cc1cnc(Nc2cc(NC[C@H]3CNCCO3)c(C(F)(F)F)cn2)cn1 [SRA737] + CCc1c2c(nc3ccc(O)cc13)-c1cc3c(c(=O)n1C2)COC(=O)[C@]3(O)CC [SN-38] (first compound max 10 µM, 7x7, partner max 0.3 µM)"
measuredproperty = "combination Emax"
reported = 0.75

[[record]]
compound = "Cc1cc2ncnn2cc1Nc1ncc2c(n1)n(C1CCOCC1)c(=O)n2C [AZD7648] + O=C(c1cc(Cc2n[nH]c(=O)c3ccccc23)ccc1F)N1CCN(C(=O)C2CC2)CC1 [Olaparib] (first compound max 10 µM, 7x7, partner max 10 µM)"
measuredproperty = "combination Emax"
reported = 0.18

[[record]]
compound = "COc1cccc2c1C(=O)c1c(O)c3c(c(O)c1C2=O)C[C@@](O)(C(=O)CO)C[C@@H]3O[C@H]1C[C@H](N)[C@H](O)[C@H](C)O1 [Doxorubicin] + Cc1cc2ncnn2cc1Nc1ncc2c(n1)n(C1CCOCC1)c(=O)n2C [AZD7648] (first compound max 1 µM, 7x7, partner max 10 µM)"
measuredproperty = "combination Emax"
reported = 0.441

[[record]]
compound = "C=CCn1c(=O)c2cnc(Nc3ccc(N4CCN(C)CC4)cc3)nc2n1-c1cccc(C(C)(C)O)n1 [AZD1775] + Nc1ccn([C@@H]2O[C@H](CO)[C@@H](O)C2(F)F)c(=O)n1 [Gemcitabine] (first compound max 1 µM, partner max 0.3 µM)"
measuredproperty = "combination Emax"
reported = 0.827

[[record]]
compound = "COc1cccc(OCCCN)c1-c1cc(Nc2cnc(C#N)cn2)n[nH]1 [Prexasertib] + C[C@@H]1COCCN1C2=NC(=NC(=C2)C3(CC3)[S@](=N)(=O)C)C4=C5C=CNC5=NC=C4 [AZD6738] (first compound max 1 µM, 7x7, partner max 10 µM)"
measuredproperty = "combination Emax"
reported = 0.698

